experimental target: Serine/threonine-protein kinase pim-3 (Homo sapiens);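 note: mean inhibition of PIM3 kinase activity, recorded in the GSK_PKIS screening set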
settings: at 0.1 µM
Entries and their measured inhibition follow.
Please give the number followed by its unit.

The reported Serine/threonine-protein kinase pim-3 (Homo sapiens) inhibition of c1ccc(COc2ccc(Nc3ncnc4ccc(-c5ccco5)cc34)cc2)cc1 is -0.14%

The reported Serine/threonine-protein kinase pim-3 (Homo sapiens) inhibition of [O-][S+]1CCN(Cc2ccc(-c3ccc4ncnc(Nc5ccc(OCc6cccc(F)c6)c(Cl)c5)c4c3)o2)CC1 is 0.21%

The reported Serine/threonine-protein kinase pim-3 (Homo sapiens) inhibition of FC(F)(F)c1cccc(-c2nn3ncccc3c2-c2ccnc(Nc3ccc4c(c3)OCCO4)n2)c1 is -1.58%

----------
experimental target: Serine/threonine-protein kinase Sgk1 (Homo sapiens) (UniProt O00141)
Sequence (O00141 whole entry): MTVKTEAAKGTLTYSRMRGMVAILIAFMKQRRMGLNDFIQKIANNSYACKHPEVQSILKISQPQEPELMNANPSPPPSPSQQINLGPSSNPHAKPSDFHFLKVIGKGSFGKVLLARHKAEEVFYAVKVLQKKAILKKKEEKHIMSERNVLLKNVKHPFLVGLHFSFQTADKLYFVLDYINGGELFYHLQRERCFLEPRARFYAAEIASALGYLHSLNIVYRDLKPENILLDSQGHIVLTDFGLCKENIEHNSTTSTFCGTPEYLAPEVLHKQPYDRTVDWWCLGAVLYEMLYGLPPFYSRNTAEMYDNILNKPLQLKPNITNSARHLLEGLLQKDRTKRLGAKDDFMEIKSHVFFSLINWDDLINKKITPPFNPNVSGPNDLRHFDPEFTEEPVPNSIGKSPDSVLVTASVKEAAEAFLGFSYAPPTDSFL
settings: at 0.1 µM
Description: GSK_PKIS: SGK1 mean inhibition at 0.1 uM [Nanosyn]
measure name: inhibition (%)
Just the number in %, nothing appended.

1. Cc1cccc(Nc2ncc(-c3ccccc3)o2)c1	1.63
2. COC(=O)Nc1nc2ccc(Oc3ccc(NC(=O)Nc4cccc(Cl)c4)cc3)cc2[nH]1	0.53

Turning now to a further compound:
Please fill in: inhibition reported for CC(=O)Nc1cccc(C#Cc2cncnc2Nc2ccc(OCc3cccc(F)c3)c(Cl)c2)c1 = 3.01

----------
Entries and their measured inhibition follow.
experimental target: Activated CDC42 kinase 1 (Homo sapiens)
settings: at 1 µM
Description: GSK_PKIS: TNK2 mean inhibition at 1 uM [Nanosyn]
Please give the number followed by its unit.

Consider the following illustrative entries.
1. COc1ccc2[nH]c3c4[nH]c5ccc(OC)cc5c4c4c(c3c2c1)C(=O)NC4=O	16%
2. COc1cccc(-c2c[nH]c3c(N/N=C/c4ccncc4)ncnc23)c1	15.3%
3. COc1cccc(-n2ncc3c(N/N=C/c4ccc(F)cc4)ncnc32)c1	3.5%
4. COc1ccc(CNC(=O)c2ccc(-c3cc(-c4nnc(C)o4)ccc3C)cc2)cc1	6%

Please fill in: inhibition reported for CS(=O)(=O)CCNCc1ccc(-c2ccc3ncnc(Nc4ccc(OCc5ccccc5)c(C(F)(F)F)c4)c3c2)o1 = 1.65%

Please fill in: inhibition reported for O=C(Nc1n[nH]c2cc(-c3ccc(F)cc3)ccc12)C1CC1 = 1.19%

----------
experimental target: Serine/threonine-protein kinase MARK1 (Homo sapiens) (UniProt Q9P0L2);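 note: reported values are mean percent inhibition of MARK1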
Sequence (Q9P0L2 whole entry, looked up): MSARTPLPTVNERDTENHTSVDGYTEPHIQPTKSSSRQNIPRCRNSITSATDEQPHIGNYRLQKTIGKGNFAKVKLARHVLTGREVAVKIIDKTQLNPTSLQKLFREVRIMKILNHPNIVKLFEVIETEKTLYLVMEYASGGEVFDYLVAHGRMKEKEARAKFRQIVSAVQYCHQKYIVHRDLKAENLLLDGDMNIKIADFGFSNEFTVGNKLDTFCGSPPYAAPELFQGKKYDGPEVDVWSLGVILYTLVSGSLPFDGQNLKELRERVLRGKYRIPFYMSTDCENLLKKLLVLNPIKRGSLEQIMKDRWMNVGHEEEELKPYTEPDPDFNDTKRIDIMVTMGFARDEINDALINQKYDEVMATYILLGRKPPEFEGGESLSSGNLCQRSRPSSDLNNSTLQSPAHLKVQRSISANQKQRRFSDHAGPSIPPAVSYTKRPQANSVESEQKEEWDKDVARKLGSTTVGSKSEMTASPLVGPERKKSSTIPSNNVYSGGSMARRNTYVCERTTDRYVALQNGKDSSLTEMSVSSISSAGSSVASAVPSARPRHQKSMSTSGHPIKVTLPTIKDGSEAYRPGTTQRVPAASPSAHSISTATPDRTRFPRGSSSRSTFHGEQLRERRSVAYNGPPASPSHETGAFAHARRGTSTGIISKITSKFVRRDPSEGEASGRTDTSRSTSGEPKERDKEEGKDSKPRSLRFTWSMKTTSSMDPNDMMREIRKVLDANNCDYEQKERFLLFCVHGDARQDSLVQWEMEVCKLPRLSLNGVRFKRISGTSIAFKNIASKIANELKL
settings: at 1 µM
measure name: inhibition
Please give the number followed by its unit.

Consider the following illustrative entries.
1) CCn1c(-c2nonc2N)nc2c(C#CC(C)(C)O)ncc(OC3CCNCC3)c21	74.1%
2) O=C(Nc1n[nH]c2cc(-c3ccc(F)cc3)ccc12)C1CC1	5.7%
3) COc1cc2c(cc1Nc1nc(Nc3ccsc3C(N)=O)c3cc[nH]c3n1)N(C(=O)CN(C)C)CCC2(C)C	11.9%
4) CN1CCC(n2cnc(-c3ccc(F)cc3)c2-c2ccnc(N)n2)CC1	6.88%
5) FC(F)(F)c1cccc(-c2nn3ncccc3c2-c2ccnc(Nc3ccc4c(c3)OCCO4)n2)c1	3.63%

Please fill in: inhibition reported for NC(=O)c1sc(-n2cnc3ccc(C(F)(F)F)cc32)cc1OCc1ccccc1Br = 4.02%

Please fill in: inhibition reported for CCn1c(-c2nonc2N)nc2c(C#CC(C)(C)O)nc(OC[C@H](N)c3ccccc3)cc21 = 27.3%

Please fill in: inhibition reported for CC(C)COC(=O)c1ccc2c(c1)/C(=C/Nc1ccc(S(N)(=O)=O)cc1)C(=O)N2 = 87.1%

Please fill in: inhibition reported for Nc1ncc(-c2cccc(S(N)(=O)=O)c2)c2scc(-c3ccc(F)c(Cl)c3)c12 = 5.62%

Please fill in: inhibition reported for CC1=C(C(=O)Nc2cc(Cl)c3[nH]ncc3c2)C(c2ccc(C(F)(F)F)cc2)CC(=O)N1 (configuration not stated) = 6.87%

Please fill in: inhibition reported for N#Cc1c(NC(=O)c2ccc(F)cc2)sc2c1CCCC2 = 0.93%

Please fill in: inhibition reported for CNC(=O)c1cccc(C#Cc2cncnc2Nc2ccc(OCc3cccc(F)c3)c(Cl)c2)c1 = 1.6%

----------
experimental target: Serine/threonine-protein kinase 4 (Homo sapiens);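 note: mean inhibition of MST1, part of the GSK PKIS dataset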
settings: at 1 µM
measure name: inhibition

Consider the following illustrative entries.
1. COc1ccc(-c2cc3c(N)ncnc3o2)cc1	-0.96%
2. COc1ccc2[nH]c3c4[nH]c5ccc(OC)cc5c4c4c(c3c2c1)C(=O)NC4=O	42%
3. [O-][S+]1CCN(Cc2ccc(-c3ccc4ncnc(Nc5ccc(OCc6cccc(F)c6)c(Cl)c5)c4c3)o2)CC1	8.16%
4. O=S(=O)(CCNCc1ccc(-c2ccc3ncnc(Nc4ccc(OCc5cccc(F)c5)c(Cl)c4)c3c2)o1)c1ccccc1	7.44%
5. CCn1c(-c2nonc2N)nc2ccccc21	7.11%
6. COc1cc(N2CCN(C(C)C)CC2)ccc1Nc1nc(Nc2ccc(F)cc2C(N)=O)c2cc[nH]c2n1	25.2%
7. COc1ccc(-c2cc(-c3c[nH]nc3-c3ccccn3)ccn2)cc1	10.6%

Turning now to a further molecule:
Please fill in: inhibition reported for CC(=O)Nc1cccc(C#Cc2cncnc2Nc2ccc(OCc3cccc(F)c3)c(Cl)c2)c1 = 5.79%

----------
Entries and their measured inhibition follow.
Tested on: Epidermal growth factor receptor (Homo sapiens), P00533 [L861Q]
Sequence (P00533 whole entry L861Q): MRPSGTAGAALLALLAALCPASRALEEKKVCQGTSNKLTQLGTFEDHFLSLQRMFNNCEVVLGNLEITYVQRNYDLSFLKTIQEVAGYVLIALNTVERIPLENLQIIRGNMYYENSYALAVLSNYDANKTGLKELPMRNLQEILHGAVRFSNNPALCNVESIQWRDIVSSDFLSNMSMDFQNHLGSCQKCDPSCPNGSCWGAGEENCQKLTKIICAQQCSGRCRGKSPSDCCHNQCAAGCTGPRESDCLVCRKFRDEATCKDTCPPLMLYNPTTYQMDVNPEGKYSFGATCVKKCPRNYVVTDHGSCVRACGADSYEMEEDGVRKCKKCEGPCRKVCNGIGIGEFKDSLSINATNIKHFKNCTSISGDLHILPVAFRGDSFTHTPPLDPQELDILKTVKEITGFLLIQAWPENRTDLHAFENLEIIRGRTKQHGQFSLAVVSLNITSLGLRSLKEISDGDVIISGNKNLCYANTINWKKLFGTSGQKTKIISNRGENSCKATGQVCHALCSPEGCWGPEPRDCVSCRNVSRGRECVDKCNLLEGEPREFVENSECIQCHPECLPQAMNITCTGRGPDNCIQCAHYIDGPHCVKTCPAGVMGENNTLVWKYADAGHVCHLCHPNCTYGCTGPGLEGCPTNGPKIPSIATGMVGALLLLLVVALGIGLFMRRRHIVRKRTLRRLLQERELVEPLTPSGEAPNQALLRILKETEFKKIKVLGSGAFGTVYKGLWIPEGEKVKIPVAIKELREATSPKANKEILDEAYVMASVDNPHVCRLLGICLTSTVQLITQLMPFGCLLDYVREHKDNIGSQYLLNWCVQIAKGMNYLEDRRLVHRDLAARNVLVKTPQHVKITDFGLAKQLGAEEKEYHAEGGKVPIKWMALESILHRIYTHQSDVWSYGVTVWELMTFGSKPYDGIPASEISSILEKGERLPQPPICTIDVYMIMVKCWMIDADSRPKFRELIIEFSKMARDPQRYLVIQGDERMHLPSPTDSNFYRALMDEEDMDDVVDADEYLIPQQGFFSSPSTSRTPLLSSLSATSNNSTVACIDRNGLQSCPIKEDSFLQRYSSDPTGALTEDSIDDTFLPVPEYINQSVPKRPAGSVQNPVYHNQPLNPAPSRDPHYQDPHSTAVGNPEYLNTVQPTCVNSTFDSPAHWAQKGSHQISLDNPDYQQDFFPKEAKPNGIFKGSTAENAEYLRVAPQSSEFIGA
settings: at 1 µM
Just the number in %, nothing appended.

Consider the following illustrative entries.
1) Nc1ncc(-c2cccc(S(N)(=O)=O)c2)c2scc(-c3ccc(F)c(Cl)c3)c12	10.2
2) CNC(=O)c1cccc(C#Cc2cncnc2Nc2ccc(OCc3cccc(F)c3)c(Cl)c2)c1	45.7
3) COc1ccc(-c2oc3ncnc(N)c3c2-c2ccc(NC(=O)Nc3cc(C(F)(F)F)ccc3F)cc2)cc1	7.85

Turning now to a further compound:
The reported Epidermal growth factor receptor (Homo sapiens), P00533 [L861Q] inhibition of COc1ccc(-c2nn3ncccc3c2-c2ccnc(Nc3ccc4c(c3)OCCO4)n2)cc1 is 34.3

----------
experimental target: RAC-beta serine/threonine-protein kinase (Homo sapiens);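 note: reported figure is the mean percent inhibition of AKT2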
settings: at 0.1 µM
measure name: inhibition (%)
Just the number in %, nothing appended.

1. COc1ccc2c(-c3ccnc(Nc4cccc(OC(F)(F)F)c4)n3)cnn2n1	2.41
2. COc1cc(Nc2nccc(Nc3ccc4c(C)n[nH]c4c3)n2)cc(OC)c1OC	0.52
3. Fc1ccc(-c2nn3ccccc3c2-c2ccncc2)cc1	0.35

The reported RAC-beta serine/threonine-protein kinase (Homo sapiens) inhibition of O=S(=O)(CCNCc1ccc(-c2ccc3ncnc(Nc4ccc(OCc5cccc(F)c5)c(Cl)c4)c3c2)o1)c1ccccc1 is 2.21

The reported RAC-beta serine/threonine-protein kinase (Homo sapiens) inhibition of COC(=O)Nc1nc2ccc(S(=O)(=O)c3ccc(NC(=O)Nc4cc(C(F)(F)F)ccc4F)cc3)cc2[nH]1 is 1.6

The reported RAC-beta serine/threonine-protein kinase (Homo sapiens) inhibition of COc1cc(/C=N/Nc2ncnc3[nH]ncc23)ccc1O is 1.01

The reported RAC-beta serine/threonine-protein kinase (Homo sapiens) inhibition of CC(=O)NCc1cccc(C#Cc2cncnc2Nc2ccc(OCc3cccc(F)c3)c(Cl)c2)c1 is -0.39

The reported RAC-beta serine/threonine-protein kinase (Homo sapiens) inhibition of CCn1c(-c2nonc2N)nc2ccccc21 is 0.69

The reported RAC-beta serine/threonine-protein kinase (Homo sapiens) inhibition of FC(F)(F)c1cccc(-c2nn3ncccc3c2-c2ccnc(Nc3ccc4c(c3)OCCO4)n2)c1 is 2.75

The reported RAC-beta serine/threonine-protein kinase (Homo sapiens) inhibition of Cc1ccc2c(-c3ccnc(Nc4ccccc4)n3)c(-c3ccc(F)cc3)nn2n1 is 2.02

----------
System: Platelet-derived growth factor receptor alpha (Homo sapiens), P16234 [V561D]
Sequence (P16234 whole entry V561D): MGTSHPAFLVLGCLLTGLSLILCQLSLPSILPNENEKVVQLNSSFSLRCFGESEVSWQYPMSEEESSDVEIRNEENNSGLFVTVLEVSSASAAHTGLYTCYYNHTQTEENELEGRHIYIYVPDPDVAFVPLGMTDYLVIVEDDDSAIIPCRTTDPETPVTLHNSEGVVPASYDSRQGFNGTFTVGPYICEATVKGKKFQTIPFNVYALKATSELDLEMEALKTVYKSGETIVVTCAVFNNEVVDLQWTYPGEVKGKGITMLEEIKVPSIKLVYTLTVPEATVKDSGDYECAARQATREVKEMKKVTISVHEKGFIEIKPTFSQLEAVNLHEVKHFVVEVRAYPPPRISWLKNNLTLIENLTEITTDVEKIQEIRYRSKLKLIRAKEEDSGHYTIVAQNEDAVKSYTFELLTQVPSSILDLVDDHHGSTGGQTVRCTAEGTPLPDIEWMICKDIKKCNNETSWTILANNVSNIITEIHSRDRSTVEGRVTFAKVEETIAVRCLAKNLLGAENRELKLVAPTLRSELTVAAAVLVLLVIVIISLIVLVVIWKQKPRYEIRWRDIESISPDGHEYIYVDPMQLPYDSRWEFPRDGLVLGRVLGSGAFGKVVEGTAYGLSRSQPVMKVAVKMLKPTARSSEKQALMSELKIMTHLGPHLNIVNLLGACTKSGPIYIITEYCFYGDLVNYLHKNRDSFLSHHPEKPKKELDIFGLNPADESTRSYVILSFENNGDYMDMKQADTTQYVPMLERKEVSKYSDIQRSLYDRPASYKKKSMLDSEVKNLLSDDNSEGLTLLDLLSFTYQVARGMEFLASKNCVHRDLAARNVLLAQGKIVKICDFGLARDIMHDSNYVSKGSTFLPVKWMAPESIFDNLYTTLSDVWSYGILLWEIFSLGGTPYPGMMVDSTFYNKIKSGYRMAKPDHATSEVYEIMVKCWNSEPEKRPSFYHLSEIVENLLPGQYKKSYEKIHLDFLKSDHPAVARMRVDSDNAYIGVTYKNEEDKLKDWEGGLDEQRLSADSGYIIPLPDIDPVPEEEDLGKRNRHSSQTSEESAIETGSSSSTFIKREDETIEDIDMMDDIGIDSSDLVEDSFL
settings: at 0.1 µM
Entries and their measured inhibition follow.
Just the number in %, nothing appended.

Consider the following illustrative entries.
1. COc1ccc2c(-c3ccnc(Nc4cccc(OC(F)(F)F)c4)n3)cnn2n1	5.14
2. Nc1nc(-c2cccc(Cl)c2)c(-c2ccc3ncccc3n2)s1	9.61
3. COc1cc2c(cc1Nc1nc(Nc3ccsc3C(N)=O)c3cc[nH]c3n1)N(C(=O)CN(C)C)CCC2(C)C	13.1
4. CNC(=O)c1cccc(C#Cc2cncnc2Nc2ccc(OCc3cccc(F)c3)c(Cl)c2)c1	0.66
5. CS(=O)(=O)CCNCc1ccc(-c2ccc3ncnc(Nc4ccc(OCc5ccccc5)c(C(F)(F)F)c4)c3c2)o1	3.38
6. CN1CCC(n2cnc(-c3ccc(F)cc3)c2-c2ccnc(Nc3ccccc3)n2)CC1	5.65
7. CCn1c(-c2nonc2N)nc2c(C#CC(C)(C)O)nc(OC[C@H](N)c3ccccc3)cc21	4.88
8. c1cc(-c2cnn3nc(N4CCOCC4)ccc23)nc(NC2CC2)n1	18.1
9. COc1ccc2[nH]c3c4[nH]c5ccc(OC)cc5c4c4c(c3c2c1)C(=O)NC4=O	93.8
10. CC(C)(CO)CNC(=O)c1ccc2c(c1)/C(=N/Nc1ccc(S(N)(=O)=O)cc1)C(=O)N2	15.7

Please fill in: inhibition reported for COc1ccc(-c2oc3ncnc(N)c3c2-c2ccc(NC(=O)Nc3cc(C(F)(F)F)ccc3F)cc2)cc1 = 26.6

Please fill in: inhibition reported for Nc1ncc(-c2cccc(S(N)(=O)=O)c2)c2scc(-c3ccc(F)c(Cl)c3)c12 = 36.8

Please fill in: inhibition reported for CS(=O)(=O)CCNCc1coc(-c2ccc3ncnc(Nc4ccc(OCc5ccccc5)cc4)c3c2)c1 = 3.61

Please fill in: inhibition reported for c1ccc(COc2ccc(Nc3ncnc4ccc(-c5ccco5)cc34)cc2)cc1 = 2.39

Please fill in: inhibition reported for N#Cc1c(NC(=O)CN2CCOCC2)sc2c1CCCC2 = 4.95
